# ASSAY: Rearrangement of O-HMM to HDT (chemical stability)
# Type: physicochemical
# SETUP CONDITIONS: hccl3, HCCl3; 25° C.; 26 hr.; read-out: HDT (formed by rearrangement, determined by NMR)

COMPOUND	degraded at 26 h, %
CN(C)Oc1nc(N(C)C)nc(N(C)C)n1 [O-HMM]	3

---

# ASSAY: Rearrangement of O-HMM to HDT (chemical stability)
# Type: physicochemical
# SETUP CONDITIONS: hccl3/h+ (p-nitrobenzoic acid), HCCl3/H+ (0.1 equiv. p-nitrobenzoic acid); 50° C.; 26 hr.; read-out: HDT (formed by rearrangement, determined by NMR)
ENDPOINT: degraded at 26 h (%)

INPUT SMILES	ENDPOINT	NUMERIC VALUE
CN(C)Oc1nc(N(C)C)nc(N(C)C)n1	degraded at 26 h	100

---

# ASSAY: Rearrangement of O-HMM to HDT (chemical stability)
# Type: physicochemical
# SETUP CONDITIONS: h2o; 25° C.; 24 hr.; read-out: HDT (formed by rearrangement, determined by NMR)

COMPOUND	UNIT OF MEASURE	degraded at 24 h
CN(C)Oc1nc(N(C)C)nc(N(C)C)n1 [O-HMM]	%	0

---

# ASSAY: Rearrangement of O-HMM to HDT (chemical stability)
# Assay type: physicochemical
# SETUP CONDITIONS: h2o/h+ (0.01 m hcl); 25° C.; 4 hr.; read-out: HDT (formed by rearrangement, determined by NMR)
ENDPOINT: degraded at 4 h (%)

INPUT SMILES	NUMERIC VALUE
CN(C)Oc1nc(N(C)C)nc(N(C)C)n1	100

---

# ASSAY: Rearrangement of O-HMM to HDT (chemical stability)
# Type: physicochemical
# SETUP CONDITIONS: h2o/h+ (0.05 m hoac/naoac), pH 5, H2O/H+ (0.05 M HOAc/NaOAc pH 5); 25° C.; 4 hr.; read-out: HMM--NO (remaining, determined by NMR)

INPUT SMILES	remaining at 4 h
CN(C)Oc1nc(N(C)C)nc(N(C)C)n1	21%

---

# ASSAY: Rearrangement of O-HMM to HDT (chemical stability)
# Type: physicochemical
# SETUP CONDITIONS: h2o/h+ (0.01 m hcl); 25° C.; 4 hr.; read-out: HMM--NO (remaining, determined by NMR)

COMPOUND	UNIT OF MEASURE	remaining at 4 h
CN(C)Oc1nc(N(C)C)nc(N(C)C)n1 [O-HMM]	%	0

---

# ASSAY: Rearrangement of O-HMM to HDT (chemical stability)
# Format: physicochemical
# SETUP CONDITIONS: pentane; 135° C. sealed tube; 20 hr.; read-out: HDT (formed by rearrangement, determined by NMR)

INPUT SMILES	degraded at 20 h, %
CN(C)Oc1nc(N(C)C)nc(N(C)C)n1	100

---

# ASSAY: Rearrangement of O-HMM to HDT (chemical stability)
# Assay type: physicochemical
# SETUP CONDITIONS: hccl3, HCCl3; 25° C.; 26 hr.; read-out: HMM--NO (remaining, determined by NMR)
# From the text: Solvent Temp. Time HMM--NO HDT ^a Yields determined by NMR ^b Sealed tube reaction. Solutions degassed with argon and then seale ^d 0.1 equiv. mchlorobenzoic acid ^e 0.1 equiv. pnitrobenzoic acid ^f 0.05 M HOAc/NaOAc pH 5
ENDPOINT: remaining at 26 h (%)

INPUT SMILES	NUMERIC VALUE
CN(C)Oc1nc(N(C)C)nc(N(C)C)n1	97

---

# ASSAY: Rearrangement of O-HMM to HDT (chemical stability)
# Type: physicochemical
# SETUP CONDITIONS: hccl3/h+ (m-chlorobenzoic acid), HCCl3/H+ (0.1 equiv. m-chlorobenzoic acid); 50° C.; 26 hr.; read-out: HDT (formed by rearrangement, determined by NMR)

INPUT SMILES	degraded at 26 h, %
CN(C)Oc1nc(N(C)C)nc(N(C)C)n1	97

---

# ASSAY: Rearrangement of O-HMM to HDT (chemical stability)
# Format: physicochemical
# SETUP CONDITIONS: hccl3/h+ (m-chlorobenzoic acid), HCCl3/H+ (0.1 equiv. m-chlorobenzoic acid); 135° C. sealed tube; 20 hr.; read-out: HMM--NO (remaining, determined by NMR)
ENDPOINT: remaining at 20 h (%)

INPUT SMILES	NUMERIC VALUE
CN(C)Oc1nc(N(C)C)nc(N(C)C)n1	0

---

# ASSAY: Solubility in lipid and aqueous media
# Assay type: physicochemical
# SETUP CONDITIONS: water; read-out: solubility in aqueous medium (water)
ENDPOINT: solubility (mg/mL)

INPUT SMILES	ENDPOINT	UNIT OF MEASURE	NUMERIC VALUE
CN(C)Oc1nc(N(C)C)nc(N(C)C)n1	solubility	mg/mL	19

---

# ASSAY: Solubility in lipid and aqueous media
# Type: physicochemical
# SETUP CONDITIONS: pentane, organic solvent or mixture; read-out: solubility in lipid medium (pentane)

INPUT SMILES	solubility [mg/mL]
CN(C)Oc1nc(N(C)C)nc(N(C)C)n1	29

---

# ASSAY: Rearrangement of O-HMM to HDT (chemical stability)
# Assay type: physicochemical
# SETUP CONDITIONS: hccl3/h+ (p-nitrobenzoic acid), HCCl3/H+ (0.1 equiv. p-nitrobenzoic acid); 50° C.; 26 hr.; read-out: HMM--NO (remaining, determined by NMR)

INPUT SMILES	remaining at 26 h [%]
CN(C)Oc1nc(N(C)C)nc(N(C)C)n1	0

---

# ASSAY: Rearrangement of O-HMM to HDT (chemical stability)
# Type: physicochemical
# SETUP CONDITIONS: hccl3, HCCl3; 135° C. sealed tube; 20 hr.; read-out: HMM--NO (remaining, determined by NMR)

INPUT SMILES	remaining at 20 h [%]
CN(C)Oc1nc(N(C)C)nc(N(C)C)n1	0

---

# ASSAY: Rearrangement of O-HMM to HDT (chemical stability)
# Assay type: physicochemical
# SETUP CONDITIONS: h2o; 25° C.; 24 hr.; read-out: HMM--NO (remaining, determined by NMR)
ENDPOINT: remaining at 24 h (%)

COMPOUND	ENDPOINT	NUMERIC VALUE
CN(C)Oc1nc(N(C)C)nc(N(C)C)n1 [O-HMM]	remaining at 24 h	100

---

# ASSAY: Rearrangement of O-HMM to HDT (chemical stability)
# Type: physicochemical
# SETUP CONDITIONS: hccl3, HCCl3; 50° C.; 26 hr.; read-out: HMM--NO (remaining, determined by NMR)

INPUT SMILES	remaining at 26 h
CN(C)Oc1nc(N(C)C)nc(N(C)C)n1	63%

---

# ASSAY: Rearrangement of O-HMM to HDT (chemical stability)
# Type: physicochemical
# SETUP CONDITIONS: h2o/h+ (0.05 m hoac/naoac), pH 5, H2O/H+ (0.05 M HOAc/NaOAc pH 5); 50° C.; 4 hr.; read-out: HMM--NO (remaining, determined by NMR)

INPUT SMILES	UNIT OF MEASURE	remaining at 4 h
CN(C)Oc1nc(N(C)C)nc(N(C)C)n1	%	0

---

# ASSAY: Rearrangement of O-HMM to HDT (chemical stability)
# Type: physicochemical
# SETUP CONDITIONS: hccl3, HCCl3; 50° C.; 26 hr.; read-out: HDT (formed by rearrangement, determined by NMR)

INPUT SMILES	degraded at 26 h
CN(C)Oc1nc(N(C)C)nc(N(C)C)n1	37%
